# Test system: HSkMC (human skeletal muscle cells)
# Procedure summary: cytotoxicity call (relative viability < 0.9)
# Test settings: 10 µM
The campaign covered roughly 39,000 compounds. About 1,500 (3.8%) were called active. The list comes from a sample in which actives are over-represented; it also holds close analogues and randomly drawn compounds.
In this exercise, the only acceptable responses are t (active), f (inactive)

**Q:** Query: recorded result category for C[C@@H]1CN([C@H](C)CO)C(=O)c2cc(NS(C)(=O)=O)ccc2O[C@@H](C)CCCCO[C@@H]1CN(C)C(=O)CCCN(C)C in this test
**A:** f

**Q:** Hi, sorry to bother you, what did the test record for CN1CCN(C(=O)C[C@@H]2CC[C@H](NC(=O)Cc3ccccn3)[C@@H](CO)O2)CC1 ?
**A:** f

**Q:** Hey, what did the test say about C[C@@H]1CCCCO[C@H](CN(C)C(=O)Nc2ccc(F)cc2)[C@@H](C)CN([C@H](C)CO)C(=O)c2cc(NC(=O)CCC(F)(F)F)ccc2O1 ?
**A:** f

**Q:** Status in this test for Cc1nnn2c1COC[C@H](CNCC(C)C)C2 ?
**A:** f

**Q:** Could you check what this test reported for COc1ccc2c3c(n(c2c1)C)[C@H](CO)N(C[C@]13CCN(CC1)C(=O)c1cnccn1)C(=O)c1cnccn1 ?
**A:** f

**Q:** Can you look up the reported call for C[C@H](O)C#Cc1ccc2c(c1)O[C@@H](CN(C)C(=O)Cc1ccccn1)[C@H](C)CN([C@@H](C)CO)S2(=O)=O for me?
**A:** f

**Q:** Could you kindly confirm the outcome this assay logged for CCC[C@@H](O)C#Cc1cnc2c(c1)C(=O)N([C@H](C)CO)C[C@H](C)[C@H](CN(C)Cc1ccc3c(c1)OCO3)O2 ?
**A:** f

**Q:** GET /call?item= C[C@@H]1CN([C@H](C)CO)C(=O)c2cc(C#CC3(O)CCCC3)cnc2O[C@@H]1CN(C)C(=O)Cc1ccncc1 returns the recorded outcome of this test.
**A:** f

**Q:** Please let me know the test result on file for CC(C)NC(=O)Nc1ccc2c(c1)C(=O)N([C@@H](C)CO)C[C@@H](C)[C@@H](CN(C)S(=O)(=O)c1cccs1)O2 .
**A:** f

**Q:** Can you look up the reported call for CCOC(=O)CCCCCCCCCCCC[C@@H]1C=CCC1 for me?
**A:** f

**Q:** What did the test return for Cc1noc(C)c1NC(=O)Nc1ccc2c(c1)C(=O)N([C@H](C)CO)C[C@@H](C)[C@H](CN(C)C(=O)Nc1ccc(C(F)(F)F)cc1)O2 ?
**A:** f

**Q:** I'd appreciate the recorded outcome for c1ccc(-c2nc(C34CC5CC(CC(C5)C3)C4)cs2)cc1 from this test.
**A:** f

**Q:** Record request — test call for C[C@@H](NC(=O)C[C@H]1C=C[C@H](NC(=O)CN2CCOCC2)[C@@H](CO)O1)c1ccccc1
**A:** f

**Q:** Could you kindly confirm the outcome this assay logged for C[C@@H]1CCCCO[C@@H](CN(C)Cc2ccc3c(c2)OCO3)[C@H](C)CN([C@H](C)CO)C(=O)c2cc(NC(=O)Nc3ccc4c(c3)OCO4)ccc2O1 ?
**A:** f

**Q:** So what was the verdict on c1cc(CCN2CCNCC2)ccn1 in this test?
**A:** f

**Q:** What classification did O=C(C1=C[C@H](c2coc3ccccc3c2=O)C[C@H](OCCCCO)O1)N1CCN(Cc2ccc3c(c2)OCO3)CC1 end up with in this test?
**A:** f

**Q:** I'd appreciate the recorded outcome for NCc1cn(-c2ccccc2)nc1C12CC3CC(CC(C3)C1)C2 from this test.
**A:** t

Cited source for all entries: the antibiotic and cytotoxicity screens of Wong et al. (2023)
